Tested on: Staphylococcus aureus
test-name: Antibacterial activity against methicillin-resistant Staphylococcus aureus MRSA17-2 measured by liquid dilution method
Assay type: functional
property-label: MIC

Ask: # query: MIC of entry `CNC1=NC(=O)[C@@H]([C@@H](C)c2c[nH]c3cc(F)ccc23)O1`
Reply: > 128 µg/mL

Ask: # query: MIC of entry `CNC1=NC(=O)[C@@H]([C@@H](C)c2c[nH]c3cccc(C)c23)O1`
Reply: > 128 µg/mL

Ask: # query: MIC of entry `CNC1=NC(=O)[C@@H]([C@@H](C)c2c[nH]c3ccccc23)O1`
Reply: > 128 µg/mL

Ask: # query: MIC of entry `CNC1=NC(=O)[C@@H]([C@@H](C)c2c[nH]c3cccc(F)c23)O1`
Reply: > 128 µg/mL
